Listed binders paired with reported OD value
- assayed.target: T1, recombinant human regenerating islet-derived protein 1α (REG1A) (human, UniProt P05451 23-166, limits assumed)
- T1 construct: also called recombinant human REG1A; recombinant REG1A
- T1 sequence (looked up): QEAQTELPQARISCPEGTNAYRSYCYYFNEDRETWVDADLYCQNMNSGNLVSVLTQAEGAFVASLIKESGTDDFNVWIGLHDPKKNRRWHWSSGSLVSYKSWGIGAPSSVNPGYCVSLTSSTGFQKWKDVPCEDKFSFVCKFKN
- protocol.text: sandwich ELISA; capture 12F12A10; REG1A 11.11 ng/mL
quantity: OD value (OD)

binder="antibody 12F12A10 (antibody, V domains shown, Mouse monoclonal from hybridoma, stated mouse IgG1/Kappa; also called 12F12A10-biotin; Antibody 2) VH: QVQLQQSATELARPGASVKMSCKASGYTFTSYMMHWVKQRPGQGLEWIGYINPSSGYTDYNQKFKDKTTLTADKSSSTAYMQLSSLTSEDSAVYYCARYRYPHYFDYWGQGTTLTVSS VL: QIVLTQSPAIMSASPGEKVTMTCSASSSVSYIHWYQQKSGTSPKRWIYDTSKLASGVPARFSGSGSGTSYSLTISSMEAEDAAIYYCQQWSSNPPTFGAGTKLELKR" quantity="OD value" quantity_unit=OD result_value=0.088
binder="antibody 11D11B11 (antibody, mouse IgG2a, kappa, V domains shown, Mouse monoclonal from hybridoma, stated mouse IgG1/Kappa; Used unlabelled as capture and biotin-labelled as detection antibody; also called 11D11B11-biotin) VH: DVKLVESGGGLVKPGGSLKLSCAASGFTFSSFSMSWFRQTPDKRLEWVATISSGGSSTYYPDSVKGRFTISRDNAKNTLYLQMTSLKSEDTAIFYCRGGYYGNYDPLDYWGQGTSVTVSA VL: DIVMIQSQKFMSTSVGDRVSITCTASHNVDSNVAWYQQKPGQSPQALIYSASYRYSGVPDRFTGSGSGTDFTLTINNVQSEDLAEYFCQQYNSYPLTFGGGTRLEIKR" quantity="OD value" quantity_unit=OD result_value=2.69
binder="antibody 21B11D2 (antibody, mouse IgG2b, kappa, V domains shown, Mouse monoclonal from hybridoma, stated mouse IgG1/Kappa; Used unlabelled as capture and biotin-labelled as detection antibody; also called 21B11D2-biotin) VH: QAQLQQSGAELVRPGASVTLSCKASGYIFTDYEMHWVKQTPVHGLEWIGAIDPETGGTAYNQKFKGKARLTADKSSSTAYMELRSLTSEDSAVYYCTIYYTNHFDYWGQGTTLTVSS VL: DVVMTQTPLSLPVSLGDQASISCRSSQSLVYSNGDTYLYWYLQKPGQSPKLLIYKVSNRFSGVPDRFSGSGSGTDFTLKISRVEAEDLGVYFCSQSTHVPLTFGAGTKLELKR" quantity="OD value" quantity_unit=OD result_value=2.89
binder="antibody 4H8F1 (antibody, V domains shown, Mouse monoclonal from hybridoma, stated mouse IgG1/Kappa; also called 4H8F1-biotin; Antibody 1) VH: QVTLKESGPGILQPSQTLSLTCSFSGFSLSTSGMSVGWIRQPSGKGLEWLAHIWWNDDKFYNPALKSRLTISKDTSKNQIFLKIASVVTADSATYYCARIEEGWFAYWGQGTLVTVST VL: SIVMTQTPKFLLVSVGDRVTITCKASQTMSNDVAWYQQKPGQSPKLLIYYASNRYTGVPDRFTGSGYGTDFTFTISTVQAEDLAVYFCQQDYSSPLTFGAGTKLELKR" quantity="OD value" quantity_unit=OD result_value=3.05
